# Tested on: MDA-MB-231
# PROTOCOL: normalised response (% of control), CellTiter-Glo; higher = more viable cells (100 = DMSO, 0 = benzethonium chloride kill control)
# CONDITION_LABEL: incubation time: 72 h
METRIC: normalised response (%)
Numbers only, in %.

// known answers, use as guide
MOLECULE | normalised response [%]
COc1ccc(S(=O)(=O)Nc2cccnc2Nc2ccc(O)cc2)cc1 [ABT-751] (1000 nM) | 63.6
Cc1nc(C(=O)NCC(=O)O)c(O)c2ccc(Oc3ccccc3)cc12 [FG-4592] (1000 nM) | 102

// input: 5 molecules below; output: normalised response for each
1. O=C(O)CNC(=O)c1c(O)c2ccccc2n(Cc2ccccc2)c1=O [IOX-2] (5000 nM)
2. Cc1cn(-c2cc(NC(=O)c3ccc(C)c(Nc4nccc(-c5cccnc5)n4)c3)cc(C(F)(F)F)c2)cn1 [Nilotinib] (1 nM)
3. CN(C)C(=N)NC(=N)N [Metformin] (100 nM)
4. C=CCn1c(=O)c2cnc(Nc3ccc(N4CCN(C)CC4)cc3)nc2n1-c1cccc(C(C)(C)O)n1 [MK1775] (1000 nM)
5. CCNC(=O)c1noc(-c2cc(C(C)C)c(O)cc2O)c1-c1ccc(CN2CCOCC2)cc1 [NVP-AUY922] (100 nM)

91.3
98.8
102
23.6
24.6

List the reported normalised response of each molecule below.
1. CC(C)(C)c1nc(-c2cccc(NS(=O)(=O)c3c(F)cccc3F)c2F)c(-c2ccnc(N)n2)s1 [Dabrafenib] (0.25 nM)
2. CC(O)(CS(=O)(=O)c1ccc(F)cc1)C(=O)Nc1ccc(C#N)c(C(F)(F)F)c1 (centres undefined) [Bicalutamide] (1 nM)

104
104

----------
# System: MCF-10A
# PROTOCOL: normalised response (% of control), CellTiter-Glo; higher = more viable cells (100 = DMSO, 0 = benzethonium chloride kill control)
# CONDITION_LABEL: incubation time: 72 h
Could you please report measured normalised response for the items listed next?
Numbers only, in %.

Below, 2 molecules whose answers are already recorded.
MOLECULE | ASSAY_RESULT
C/C(=C\c1csc(C)n1)[C@@H]1C[C@@H]2O[C@]2(C)CCC[C@H](C)[C@H](O)[C@@H](C)C(=O)C(C)(C)[C@@H](O)CC(=O)N1 [Ixabepilone] (0.1 nM) | 107
CC(O)(CS(=O)(=O)c1ccc(F)cc1)C(=O)Nc1ccc(C#N)c(C(F)(F)F)c1 (stereo not drawn) [Bicalutamide] (10 nM) | 109

Here's the next entry for you.
Notebook: COc1cc(Nc2c(C#N)cnc3cc(OCCCN4CCN(C)CC4)c(OC)cc23)c(Cl)cc1Cl [Bosutinib] (1 nM) , normalised response read as 99.9

----------
# System: MDA-MB-468
# PROTOCOL: normalised response (% of control), CellTox Green; higher = less cell death (100 = DMSO, 0 = benzethonium chloride kill control)
# CONDITION_LABEL: incubation time: 72 h
Decision: normalised response >= 90% yields MET, all other cases yield NOT MET.

COMPOUND | CLASS_LABEL
CCn1c(C(=O)N(C2CC2)C2CC2)cc2c3c(ncn3C)c(Nc3cc(C)n(C)n3)nc21 (1000 nM) | MET
CC(=O)[C@]1(O)Cc2c(O)c3c(c(O)c2[C@@H](O[C@H]2C[C@H](N)[C@H](O)[C@H](C)O2)C1)C(=O)c1ccccc1C3=O [Idarubicin] (1000 nM) | NOT MET
CN(Cc1cnc2nc(N)nc(N)c2n1)c1ccc(C(=O)N[C@@H](CCC(=O)O)C(=O)O)cc1 [Methotrexate] (5000 nM) | MET
CO[C@@H]1[C@H](N(C)C(=O)c2ccccc2)C[C@H]2O[C@]1(C)n1c3ccccc3c3c4c(c5c6ccccc6n2c5c31)C(=O)NC4 [Midostaurin] (10000 nM) | NOT MET
C/C(=C\c1csc(C)n1)[C@@H]1C[C@@H]2O[C@]2(C)CCC[C@H](C)[C@H](O)[C@@H](C)C(=O)C(C)(C)[C@@H](O)CC(=O)N1 [Ixabepilone] (1000 nM) | NOT MET

Is normalised response for CC1(COc2ccc3c(c2)ncn3-c2ccc3cccc(N4CCC(N)CC4)c3n2)COC1 [Crenolanib] (10000 nM) at or above 90%?
MET

Can Nc1ccn([C@@H]2O[C@H](CO)[C@@H](O)C2(F)F)c(=O)n1 [Gemcitabine] (100 nM) be said to have normalised response at or above 90%?
NOT MET

Answer whether normalised response of CC(O)(CS(=O)(=O)c1ccc(F)cc1)C(=O)Nc1ccc(C#N)c(C(F)(F)F)c1 (configuration not stated) [Bicalutamide] (100 nM) is greater than or equal to 90%.
MET

Reported normalised response at or above 90%? CC(C)(C)c1nc(-c2cccc(NS(=O)(=O)c3c(F)cccc3F)c2F)c(-c2ccnc(N)n2)s1 [Dabrafenib] (25 nM)
MET

Given the entry Cc1nc(C(=O)NCC(=O)O)c(O)c2ccc(Oc3ccccc3)cc12 [FG-4592] (10000 nM) , answer whether its normalised response meets or surpasses 90%.
MET

API: above_or_equal(metric=normalised response, cutoff=90%) for item CC1(C)CCC(c2ccc(Cl)cc2)=C(CN2CCN(c3ccc(C(=O)NS(=O)(=O)c4ccc(N[C@H](CCN5CCOCC5)CSc5ccccc5)c(S(=O)(=O)C(F)(F)F)c4)cc3)CC2)C1 [Navitoclax] (1000 nM)
NOT MET

Threshold query (normalised response >= 90%) on CN(Cc1cnc2nc(N)nc(N)c2n1)c1ccc(C(=O)N[C@@H](CCC(=O)O)C(=O)O)cc1 [Methotrexate] (500 nM)
MET
